Attribution: patent US20250270301A1

Biological target: T1, full length recombinant human 2N4R tau (human, UniProt P10636 1-758)
T1 construct: bought from rPeptide; pHrodo Red maleimide-labelled where it stands in uptake assays; also called tau1-441; full length tau
T1 sequence (P10636 other isoform, or with tags, fused parts or gaps limits assumed): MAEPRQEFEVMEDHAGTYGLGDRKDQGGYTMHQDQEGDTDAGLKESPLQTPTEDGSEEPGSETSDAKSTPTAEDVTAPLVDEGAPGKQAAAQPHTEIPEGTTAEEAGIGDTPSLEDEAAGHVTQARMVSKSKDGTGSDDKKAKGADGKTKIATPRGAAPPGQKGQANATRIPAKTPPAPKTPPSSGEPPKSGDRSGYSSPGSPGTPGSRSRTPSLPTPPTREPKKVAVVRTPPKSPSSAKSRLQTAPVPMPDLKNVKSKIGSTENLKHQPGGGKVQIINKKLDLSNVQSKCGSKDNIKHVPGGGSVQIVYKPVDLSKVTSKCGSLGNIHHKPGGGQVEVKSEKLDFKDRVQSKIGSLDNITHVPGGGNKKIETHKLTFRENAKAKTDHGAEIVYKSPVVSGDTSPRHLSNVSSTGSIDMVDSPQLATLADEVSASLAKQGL
Test: SPR SCK, IgG on Protein A, tau in flow
Entries and their measured kon follow.
measured parameter: kon (M⁻¹ s⁻¹)

INSERT INTO assay_data (binder, measured_result) VALUES
  ('#44_VH4VK4_H18/pVL (antibody, V domains shown, also called Clone VH4_H18; #44_VH4_H18) VH: QVQLQESGPGLVKPSETLSLTCTVSGIDLSSYAMAWVRQAPGKGLEWIGAIDAGGNTFYASWVKGRFTISKDTSKTTVDLQMTSLTAEDTATYFCARDSGAFDPWGQGTLVTVSS VL: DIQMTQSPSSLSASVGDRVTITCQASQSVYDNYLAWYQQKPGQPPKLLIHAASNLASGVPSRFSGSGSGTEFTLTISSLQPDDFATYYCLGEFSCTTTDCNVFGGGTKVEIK', 287000),
  ('#44_VH4VK4_H17/pVL (antibody, V domains shown, also called Clone VH4_H17; #44_VH4_H17) VH: QVQLQESGPGLVKPSETLSLTCTVSGIDLSSYAMAWVRQAPGKGLEWIGAIDRVGNTFYASWVKGRFTISKDTSKTTVDLQMTSLTAEDTATYFCARDSGAFDPWGQGTLVTVSS VL: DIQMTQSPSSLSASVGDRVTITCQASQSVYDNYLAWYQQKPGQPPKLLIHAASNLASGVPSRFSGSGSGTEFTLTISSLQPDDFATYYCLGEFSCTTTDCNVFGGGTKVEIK', '4.81e+07'),
  ('#44_VH4VK4_H06/pVL (antibody, V domains shown, also called Clone VH4_H06; #44_VH4_H06) VH: QVQLQESGPGLVKPSETLSLTCTVSGIDLSSYAMAWVRQAPGKGLEWIGVIDAAGHTFYASWVKGRFTISKDTSKTTVDLQMTSLTAEDTATYFCARDSGTFDPWGQGTLVTVSS VL: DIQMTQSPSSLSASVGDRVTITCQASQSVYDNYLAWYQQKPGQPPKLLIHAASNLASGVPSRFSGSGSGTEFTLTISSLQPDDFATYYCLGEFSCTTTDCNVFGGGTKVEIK', '3.9e+06'),
  ('#44_VH4_H07/L2 (antibody, V domains shown, also called Clone VH4_H07/L2) VH: QVQLQESGPGLVKPSETLSLTCTVSGIDLSSYAMAWVRQAPGKGLEWIGAIDAAGNTFYASWVKGRFTISKDTSKTTVDLQMTSLTAEDTATYFCARDSGAFDPWGQGTLVTVSS VL: DIQMTQSPSSLSASVGDRVTITCQASQSVYDNYLAWYQQKPGQPPKLLIHAASNLASGVPSRFSGSGSGTEFTLTISSLQPDDFATYYCLGEFSCQDTDCNVFGGGTKVEIKR', 497000),
  ('#44_VH4_H13/L2 (antibody, V domains shown, also called Clone VH4_H13/L2) VH: QVQLQESGPGLVKPSETLSLTCTVSGIDLSSYAMAWVRQAPGKGLEWIGAIDSAGNTFYASWVKGRFTISKDTSKTTVDLQMTSLTAEDTATYFCARDSGAFDPWGQGTLVTVSS VL: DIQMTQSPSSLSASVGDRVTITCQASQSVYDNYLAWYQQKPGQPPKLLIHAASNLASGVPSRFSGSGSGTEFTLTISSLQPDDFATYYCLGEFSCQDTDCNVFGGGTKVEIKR', 358000);
